Hi there, I'd appreciate the recorded percent of parent for every entry that follows.
Target: SG7
Sequence (chain, as listed by the source, chain 1 of 2): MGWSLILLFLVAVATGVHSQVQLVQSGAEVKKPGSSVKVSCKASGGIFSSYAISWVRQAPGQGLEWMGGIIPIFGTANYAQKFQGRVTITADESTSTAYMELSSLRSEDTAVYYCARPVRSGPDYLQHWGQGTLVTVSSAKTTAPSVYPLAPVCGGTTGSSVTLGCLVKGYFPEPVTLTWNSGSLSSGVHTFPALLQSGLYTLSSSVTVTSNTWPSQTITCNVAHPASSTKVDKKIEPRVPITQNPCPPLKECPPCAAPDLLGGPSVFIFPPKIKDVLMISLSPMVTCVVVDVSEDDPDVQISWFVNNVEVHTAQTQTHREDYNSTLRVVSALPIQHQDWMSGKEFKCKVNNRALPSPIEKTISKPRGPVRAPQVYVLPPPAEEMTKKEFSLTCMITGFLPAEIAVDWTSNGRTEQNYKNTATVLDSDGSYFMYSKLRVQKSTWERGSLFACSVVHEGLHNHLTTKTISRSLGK
Sequence (chain, as listed by the source, chain 2 of 2): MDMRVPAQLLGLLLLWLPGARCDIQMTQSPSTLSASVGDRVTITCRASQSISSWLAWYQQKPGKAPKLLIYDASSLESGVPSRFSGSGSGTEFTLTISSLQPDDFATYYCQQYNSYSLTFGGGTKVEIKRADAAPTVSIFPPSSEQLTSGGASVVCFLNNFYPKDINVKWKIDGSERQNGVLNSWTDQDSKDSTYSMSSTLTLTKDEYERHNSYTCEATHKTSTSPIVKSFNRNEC
Experiment: flow cytometry on yeast-displayed VISTA
Conditions: chain shown with the change; 4 nM SG7; parent: est. 100; read off a plot
Write it as a number; the unit % WT goes unstated.

Please give measured percent of parent of the following entry: yeast-displayed mVISTA H121A (protein) FKVTTPYSLYVCPEGQNATLTCRILGPVSKGHDVTIYKTWYLSSRGEVQMCKEHRPIRNFTLQHLQHHGSHLKANASHDQPQKHGLELASDHHGNFSITLRNVTPRDSGLYCCLVIELKNAHPEQRFYGSMELQVQAGKGSGSTCMASNEQDSDSITAA
1

Please give measured percent of parent of the following entry: yeast-displayed mVISTA K38A (protein) FKVTTPYSLYVCPEGQNATLTCRILGPVSKGHDVTIYATWYLSSRGEVQMCKEHRPIRNFTLQHLQHHGSHLKANASHDQPQKHGLELASDHHGNFSITLRNVTPRDSGLYCCLVIELKNHHPEQRFYGSMELQVQAGKGSGSTCMASNEQDSDSITAA
63

Please give measured percent of parent of the following entry: yeast-displayed mVISTA I36A (protein) FKVTTPYSLYVCPEGQNATLTCRILGPVSKGHDVTAYKTWYLSSRGEVQMCKEHRPIRNFTLQHLQHHGSHLKANASHDQPQKHGLELASDHHGNFSITLRNVTPRDSGLYCCLVIELKNHHPEQRFYGSMELQVQAGKGSGSTCMASNEQDSDSITAA
13

Please give measured percent of parent of the following entry: yeast-displayed mVISTA E124A (protein) FKVTTPYSLYVCPEGQNATLTCRILGPVSKGHDVTIYKTWYLSSRGEVQMCKEHRPIRNFTLQHLQHHGSHLKANASHDQPQKHGLELASDHHGNFSITLRNVTPRDSGLYCCLVIELKNHHPAQRFYGSMELQVQAGKGSGSTCMASNEQDSDSITAA
9
